- Tested on: SK-MEL-2 multi-cell spheroids, viability
- PROCEDURE DETAILS: Anticancer human tumor SK-MEL-2 cell line growth inhibition [TAK];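 also: spheroids exposed to drugs for seven days before readout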
- CONDITION NOTES: curve of first compound; second compound 9.49 µM
TEST READOUT: pIC50
Hey, just a heads up that pIC50 is the negative log base 10 of the concentration in molar.

Qu. Look up pIC50 for this molecule: CC(C)n1nc(-c2ccc3oc(N)nc3c2)c2c(N)ncnc21 + CC(C)NCC(C(=O)N1CCN(c2ncnc3c2C(C)CC3O)CC1)c1ccc(Cl)cc1
Ans. 8.88

Qu. Need pIC50, item CC(C)(C)c1nc(-c2cccc(NS(=O)(=O)c3c(F)cccc3F)c2F)c(-c2ccnc(N)n2)s1 + CC(C)NCC(C(=O)N1CCN(c2ncnc3c2C(C)CC3O)CC1)c1ccc(Cl)cc1
Ans. 6.55

Qu. Recorded pIC50 of CC(C)CC(NC(=O)CNC(=O)c1cc(Cl)ccc1Cl)B1OC(=O)CC(CC(=O)O)(C(=O)O)O1 (stereo unspecified) + CC(C)NCC(C(=O)N1CCN(c2ncnc3c2C(C)CC3O)CC1)c1ccc(Cl)cc1 , please.
Ans. 8.69

Qu. What does the record list as pIC50 for CC(C)CC(NC(=O)C(Cc1ccccc1)NC(=O)c1cnccn1)B(O)O (stereo unspecified) + CC(C)NCC(C(=O)N1CCN(c2ncnc3c2C(C)CC3O)CC1)c1ccc(Cl)cc1 ?
Ans. 8.37

###

- Test system: SK-MEL-2 multi-cell spheroids, viability
- PROCEDURE DETAILS: Anticancer human tumor SK-MEL-2 cell line growth inhibition [TAK];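 also: spheroids exposed to drugs for seven days before readout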
- CONDITION NOTES: curve of first compound; second compound 9.49 µM
TEST READOUT: pIC50
Value format note: pIC50 is -log10 of concentration (mol/L); just state the number.

Qu. Need pIC50 of CCCS(=O)(=O)Nc1ccc(F)c(C(=O)c2c[nH]c3ncc(-c4ccc(Cl)cc4)cc23)c1F + CC(C)NCC(C(=O)N1CCN(c2ncnc3c2C(C)CC3O)CC1)c1ccc(Cl)cc1 , thanks.
Ans. 4.19

Qu. Query: pIC50; subject: COc1c(OCCCN2CCOCC2)ccc2c3n(c(=NC(=O)c4cnc(N)nc4)nc12)CCN3 + CC(C)NCC(C(=O)N1CCN(c2ncnc3c2C(C)CC3O)CC1)c1ccc(Cl)cc1
Ans. 7.84

###

- System: SK-MEL-2 multi-cell spheroids, viability
- PROCEDURE DETAILS: Anticancer human tumor SK-MEL-2 cell line growth inhibition [TAK];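 also: spheroids exposed to drugs for seven days before readout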;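 as to viability, T/C: percent of DMSO vehicle control luminescence so 100% = untreated viability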
- CONDITION NOTES: second compound 3 µM; first compound 0.0316 µM; stronger effect = lower value
Give measured viability, T/C for each item. Keep answers brief.
Number only, in %; omit the unit.

Qu. Need viability, T/C of CC(C)CC(NC(=O)CNC(=O)c1cc(Cl)ccc1Cl)B1OC(=O)CC(CC(=O)O)(C(=O)O)O1 (stereo unspecified) + CC(C)NCC(C(=O)N1CCN(c2ncnc3c2C(C)CC3O)CC1)c1ccc(Cl)cc1 , thanks.
Ans. 20.2

Qu. Quick check: viability, T/C of COc1c(OCCCN2CCOCC2)ccc2c3n(c(=NC(=O)c4cnc(N)nc4)nc12)CCN3 + CC(C)NCC(C(=O)N1CCN(c2ncnc3c2C(C)CC3O)CC1)c1ccc(Cl)cc1 ?
Ans. 40.2

Qu. Data request, read-out viability, T/C, for Cc1nc(NC(=O)N2CCCC2C(N)=O)sc1-c1ccnc(C(C)(C)C(F)(F)F)c1 (stereo unspecified) + CC(C)NCC(C(=O)N1CCN(c2ncnc3c2C(C)CC3O)CC1)c1ccc(Cl)cc1
Ans. 66.1

Qu. Would you kindly share the measured viability, T/C for COC1CC2CCC(C)C(O)(O2)C(=O)C(=O)N2CCCCC2C(=O)OC(C(C)CC2CCC(OCCO)C(OC)C2)CC(=O)C(C)C=C(C)C(O)C(OC)C(=O)C(C)CC(C)C=CC=CC=C1C (stereo unspecified) + CC(C)NCC(C(=O)N1CCN(c2ncnc3c2C(C)CC3O)CC1)c1ccc(Cl)cc1 ?
Ans. 30.2

Qu. Using the record for CC(C)n1nc(-c2ccc3oc(N)nc3c2)c2c(N)ncnc21 + CC(C)NCC(C(=O)N1CCN(c2ncnc3c2C(C)CC3O)CC1)c1ccc(Cl)cc1 , report its viability, T/C.
Ans. 27.2

Qu. What value of viability, T/C has been reported for the following molecule? CC(C)(C)c1nc(-c2cccc(NS(=O)(=O)c3c(F)cccc3F)c2F)c(-c2ccnc(N)n2)s1 + CC(C)NCC(C(=O)N1CCN(c2ncnc3c2C(C)CC3O)CC1)c1ccc(Cl)cc1
Ans. 108

###

Assignment: determine reported IC50 for the given compounds.
- System: SK-MEL-2 multi-cell spheroids, viability
- PROCEDURE DETAILS: Anticancer human tumor SK-MEL-2 cell line growth inhibition [TAK];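 also: spheroids exposed to drugs for seven days before readout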
- CONDITION NOTES: curve of compound

Qu. IC50 lookup needed for Cc1nc(NC(=O)N2CCCC2C(N)=O)sc1-c1ccnc(C(C)(C)C(F)(F)F)c1 (stereo not given) , thanks.
Ans. > 10000 nM

Qu. Suppose we examine the compound Cn1cnc2c(F)c(Nc3ccc(Br)cc3Cl)c(C(=O)NOCCO)cc21 ; what IC50 value has been reported?
Ans. < 9.49 nM

Qu. Give the measured IC50 of CC(C)CC(NC(=O)C(Cc1ccccc1)NC(=O)c1cnccn1)B(O)O (stereo not given) .
Ans. > 10 nM

Qu. What measured IC50 goes with COC1CC2CCC(C)C(O)(O2)C(=O)C(=O)N2CCCCC2C(=O)OC(C(C)CC2CCC(OCCO)C(OC)C2)CC(=O)C(C)C=C(C)C(O)C(OC)C(=O)C(C)CC(C)C=CC=CC=C1C (stereo not given) ?
Ans. > 100 nM

Qu. Consider the compound shown here: CCCS(=O)(=O)Nc1ccc(F)c(C(=O)c2c[nH]c3ncc(-c4ccc(Cl)cc4)cc23)c1F What is its recorded IC50?
Ans. > 100000 nM
